# key: entry, value: GI50
- Test system: SR
- test.method.notes: NCI tumour cell line growth inhibition, 48 h
Calls of active or inactive are those of the source. No stated cut-off is given here; in the data, active = GI50 up to about 1.1 µM and inactive = higher.

Completed entries (count: 3):
COc1ccc2c(c1)C(OC)C1c3c(cc4c(c3-2)OCO4)CCN1C (stereo not given) : 2.4 µM (inactive)
CN(C)C(=O)O/N=C1/C(=C2/C(=O)Nc3ccccc32)Nc2ccccc21 : 4.89 µM (inactive)
[O-][Cl+3]([O-])([O-])O.c1ccc(C2=NN2c2ccccc2)cc1 : 26.7 µM (inactive)

Given the compound FC(F)(Sc1ncc[nH]1)c1nc2ccccc2o1 , what is its reported GI50?
> 100 µM (inactive)

Given the compound CCOC(=O)/C(C#N)=C(N)/C(=N\Nc1cccc(C(F)(F)F)c1)C(=O)OCC , what is its reported GI50?
> 100 µM (inactive)

----------
- Test system: NCI-H23
- test.method.notes: NCI tumour cell line growth inhibition, 48 h
Structures can show the parent of a compound that is named as a salt. Activity calls are given as the source filed them. Cut-off read from the data, not from the text of the source: active = GI50 up to about 1.1 µM and inactive = higher.
The reply should name one outcome from active, inactive

COC(=O)C1=C(c2cc(OC)c(OC)c(OC)c2)OC(c2cc(OC)c(OC)c(OC)c2)C1 (stereo not given) : inactive

What classification did C[C@]12CC[C@H](O)CC1=CC[C@@H]1C2CC[C@]2(C)C(=O)NC(=O)CC12 (stereo not given in full) end up with in this test?
inactive

What classification did O=C(O)CCC1(c2ccccc2)NC(=O)NC1=O (stereo not given) end up with in this test?
inactive

What classification did O=C(O)C1[C@@H](C(=O)O)C1(Br)CBr (stereo not given in full) end up with in this test?
inactive

What classification did COC(=O)CCCC(=O)NC1=C(NCc2ccccc2)C(=O)c2ccccc2C1=O end up with in this test?
inactive

What classification did O=C(N[C@H]1CC2(C=C(I)C(=O)C(I)=C2)OC1=O)OCc1ccccc1 end up with in this test?
inactive

What classification did O=C1c2c(O)cccc2-c2nn(CCNCCO)c3ccc(NCCNCCO)c1c23 [LOSOXANTRONE HYDROCHLORIDE] end up with in this test?
active

What classification did Cc1ccc2c(c1)C(=O)/C(=C1/CCc3ccc(C)cc31)C2 end up with in this test?
inactive

What classification did NCCNCCCCCCNC(=O)c1cccc2cc3ccccc3nc12 end up with in this test?
inactive

What classification did C=C1C[C@H]2C=Nc3cc(OCCCOc4cc5c(cc4OC)C(=O)N4CC(=C)C[C@H]4C=N5)c(OC)cc3C(=O)N2C1 [SJG-136] end up with in this test?
active

What classification did COc1ccc2nc(-c3ccc(O)cc3)sc2c1 end up with in this test?
inactive

What classification did O=C(NN1C(=O)CSC1c1ccc(Cl)c(Cl)c1)c1ccncc1 (stereo not given) end up with in this test?
inactive

What classification did O=[N+]([O-])C(C(Cl)=C(Cl)Cl)=C(n1nnc2ccccc21)n1nnc2ccccc21 end up with in this test?
inactive

----------
- Tested on: ACHN
- test.method.notes: NCI tumour cell line growth inhibition, 48 h
The source made the active and inactive calls. No stated cut-off is given here; in the data, active = GI50 up to about 1.1 µM and inactive = higher.
The reply should name one outcome from Yes (active), No (inactive)

[O-][Cl+3]([O-])([O-])O.c1ccc(/N=c2\nc(N3CCOCC3)ss2)cc1 : No
COc1cccc(-c2nc(O)c3ccccc3n2)c1 : No
O=C1Nc2ccccc2S/C1=C\c1cccc(C(F)(F)F)c1 : No

What classification did CCN1C/C(=C\c2ccc(Cl)cc2)c2[nH]c(=O)c(C#N)c(-c3ccc(Cl)cc3)c2C1 end up with in this test?
No
